- Target Or Test System: SERT (Homo sapiens, UniProt P31645)
- Sequence (P31645 whole entry): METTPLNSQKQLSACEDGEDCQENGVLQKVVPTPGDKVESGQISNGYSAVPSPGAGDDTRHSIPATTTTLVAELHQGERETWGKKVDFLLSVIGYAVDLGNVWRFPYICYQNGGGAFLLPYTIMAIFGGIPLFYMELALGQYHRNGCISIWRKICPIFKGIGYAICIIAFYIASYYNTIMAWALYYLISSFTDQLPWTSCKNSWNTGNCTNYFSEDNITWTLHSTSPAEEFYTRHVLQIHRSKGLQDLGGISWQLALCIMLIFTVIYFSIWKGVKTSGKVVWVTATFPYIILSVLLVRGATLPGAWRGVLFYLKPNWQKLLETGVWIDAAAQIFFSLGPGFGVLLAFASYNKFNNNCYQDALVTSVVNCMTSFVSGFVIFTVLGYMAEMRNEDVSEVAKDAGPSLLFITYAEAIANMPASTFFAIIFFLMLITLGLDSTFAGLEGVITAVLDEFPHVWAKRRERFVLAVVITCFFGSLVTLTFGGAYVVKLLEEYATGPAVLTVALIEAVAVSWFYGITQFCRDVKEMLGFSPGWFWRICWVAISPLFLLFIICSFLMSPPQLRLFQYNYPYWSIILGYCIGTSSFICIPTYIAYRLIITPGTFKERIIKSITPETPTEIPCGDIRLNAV
- Experimental Protocol: Receptor binding, SERT
- Measurement Parameters: at 200 nM; read-out: SERT maximum inhibition
inhibition at 0.2 µM values, listed per item
Quantity Kind: inhibition at 0.2 µM (%)

| Compound | Qualifier Operator | Val |
| --- | --- | --- |
| Cc1cc(F)ccc1OCCCN1CC[C@H]2[C@@H](C1)c1cccc3c1N2CC(=O)N3 [Ex. 18] | = | 32 |
| O=C1CN2c3c(cccc3[C@@H]3CN(CCCOc4ccc(O)cc4)CC[C@@H]32)N1 [Ex. 6] | = | 11 |
| O=C1CN2c3c(cccc3[C@@H]3CN(CCCO)CC[C@@H]32)N1 [Ex. 2] | < | 0 |
| O=C1CN2c3c(cccc3[C@@H]3CN(CCCS(=O)(=O)c4ccc(F)cc4)CC[C@@H]32)N1 [compound 12] | < | 0 |
| CC(=O)Nc1cccc2c1N[C@H]1CCN(CCCC(=O)c3ccc(F)cc3)C[C@@H]21 [Ex. 15] | < | 0 |
| CN1C(=O)CN2c3c(cccc31)[C@@H]1CN(CCCOc3ccc(F)cc3C#N)CC[C@@H]12 [Ex. 26] | = | 93 |
| O=C1CN2c3c(cccc3[C@@H]3CN(CCCOc4ccc(F)cc4Cl)CC[C@@H]32)N1 [Ex. 19] | = | 23 |
| NC(=O)c1cc(F)ccc1OCCCN1CC[C@H]2[C@@H](C1)c1cccc3c1N2CC(=O)N3 [Ex. 8] | = | 9.6 |
